tested on: EKVX NSCLC; test: NCI tumour cell line growth inhibition, 48 h
observation-type: TGI

Known TGI results, listed for orientation:
Nc1nc(N)c(-c2cccc(C(F)(F)F)c2)c(Cc2cccc(C(F)(F)F)c2)n1    21.1 µM
Clc1ccc(OCCSCCCCCCCCCCSCCOc2ccc(Cl)cc2)cc1    > 100 µM
NC(N)=N/N=C/c1oc(-c2ccc(S(=O)(=O)O)o2)c(-c2ccc(S(=O)(=O)O)o2)c1[N+](=O)[O-]    > 100 µM
COC1C(O)CC(OC2CC(OC3CC(O[C@@H]4C(=O)c5c(cc6cc(OC7CC(OC8CC(O)C(O)C(C)O8)C(O)C(C)O7)c(C)c(O)c6c5O)CC4[C@H](OC)C(=O)C(C)=O)OC(C)C3O)OC(C)C2O)OC1C (some centres undefined)    > 33.3 µM
C(=Nc1ccccc1C1SCCCS1)c1ccccc1    > 100 µM
Cc1cc2c(cc1C)[n+](=O)c(C(=O)C(C)(C)C)c(C(F)(F)F)n2[O-]    9.95 µM
O=C(O)c1ccc(Cc2ccccc2C(=O)O)cc1    > 100 µM
COc1c(Cl)cc(Cl)cc1S(=O)O    > 100 µM

# next molecule below
Req: Need TGI, item COc1ccc(N[C@H]([C@@H](c2ccccc2)S(=O)c2ccc(C)cc2)C(F)(F)F)cc1 (some centres undefined)
Resp: > 100 µM

----------
tested on: OVCAR-4 ovarian; assay: NCI tumour cell line growth inhibition, 48 h; in the data active = GI50 below about 0.43 µM; inactive = the rest
Just give me one of these, please: active, inactive

Please review the entries below; each comes with its answer.
COc1cc2cc(c1Cl)N(C)C(=O)C[C@H](OC(=O)[C@H](C)N(C)C(=O)CCS)C[C@]1(C)O[C@H]1[C@H](C)[C@@H]1C[C@@](O)(NC(=O)O1)[C@H](OC)/C=C/C=C(\C)C2    active
Nc1ncc(-c2ccc3ncnc(N4CCc5ccc(Cl)cc54)c3c2)cn1    inactive
CCN(CC)c1ccc(C2=NN(C(C)=O)C(c3cc(OC)c(OC)c(OC)c3)C2)cc1 (configuration not stated)    inactive
CC12OC(CC(O)C1O)n1c3ccccc3c3c4c(c5c6ccccc6n2c5c31)C(=O)N(CCN1CCCC1)C4=O (configuration not stated)    inactive
O=C(CI)OCC(COC(=O)CI)OC(=O)CI    inactive
COc1ccc(C(=O)/C=C/c2c(OC)cc(OC)cc2OC)c(OC)c1    inactive

Moving on to the next molecule.
Req: Give the logged outcome of this assay for the following molecule: COC1C(O)CC(OC2CC(OC3CC(O[C@@H]4C(=O)c5c(cc6cc(OC7CC(OC8CC(O)C(O)C(C)O8)C(O)C(C)O7)c(C)c(O)c6c5O)CC4[C@H](OC)C(=O)C(C)=O)OC(C)C3O)OC(C)C2O)OC1C (some centres not stated)
Resp: active

----------
tested on: HOP-92 NSCLC; assay: NCI tumour cell line growth inhibition, 48 h
observation-type: TGI

Known TGI results, listed for orientation:
O=C(Nc1ccccc1)C(=O)C(C(=O)c1ccccc1F)C1OC(=O)c2ccccc21 (stereo not given)    > 100 µM
Cn1nc(-c2ccccc2)c(C(=O)/C=C/c2ccc(F)cc2)c(N2CCCC2)c1=O    36.3 µM

Lab note: each compound below needs its TGI filled in.
1. O=C1c2ccccc2C(=O)c2c(Nc3ccc(CCO)cc3)ccc(O)c21
2. Cc1cc(S(=O)(=O)O)ccc1N=Nc1c(O)ccc2ccccc12

Resp:
1: 26.3 µM; 2: > 100 µM

Lab note: each compound below needs its TGI filled in.
1. CC(C)(c1cn(Cc2ccccc2)c2ccccc12)c1cn(Cc2ccccc2)c2ccccc12
2. Cc1cccc2c1CC1(Cc3ccccc3C1=O)C2=O (stereo not given)
3. Cn1c(-c2ccccc2)c2cc3nc4ccccc4nc3cc2c1-c1ccccc1
4. CC(C)=Cc1cc2c(cc1O)CCC1C2CC[C@@]2(C)C1CC[C@@H]2O (stereo not given in full)
5. CN(C)C(=S)OC(Cn1cncn1)c1ccc(Cl)cc1Cl (stereo not given)
6. CC(C)(C)OC(=O)NC(Cc1ccc(OCc2ccccc2)cc1)C(=O)NC(COCc1ccccc1)C(=O)Oc1c(Cl)c(Cl)c(Cl)c(Cl)c1Cl (stereo not given)

Resp:
1. > 100 µM
2. > 100 µM
3. 94.2 µM
4. 42.1 µM
5. > 100 µM
6. 32.8 µM

----------
test system: PC-3 prostate; test: NCI tumour cell line growth inhibition, 48 h
observation-type: TGI

COc1oc(C(=O)NC2CCCCC2)c(-c2ccc(Cl)cc2)c1S(=O)(=O)c1ccccc1    > 41.3 µM
O=c1cnnc2sc(=S)[nH]n12    > 100 µM
O=C1CSC(c2cccc([N+](=O)[O-])c2)N1c1ccc(-c2ccc(-n3c(-c4ccccc4)nc4ccccc4c3=O)cc2)cc1 (stereo not given)    > 100 µM
CN(C)c1ccc(C2SCC(=O)N2c2nc3cc4sc(N5C(=O)CSC5c5ccc(N(C)C)cc5)nc4cc3s2)cc1 (stereo not given)    > 100 µM

# next compound below
Req: Need TGI, item S=c1ncc2n[nH]nc2[nH]1
Resp: > 100 µM

----------
system: SK-OV-3 ovarian; experiment: NCI tumour cell line growth inhibition, 48 h
observation-type: TGI

Known TGI results, listed for orientation:
O=C(CC(C(=O)c1ccc(F)cc1)c1ccsc1)c1cccs1 (stereo unspecified)    > 100 µM
CCCCCNC(=O)c1cc2cc(CCl)ccc2oc1=O    10.3 µM
O=C(O)CCn1cnc2c(=S)nc[nH]c21    > 100 µM

Lab note: each compound below needs its TGI filled in.
1. O=C(/C=C/c1ccccc1F)c1ccc([N+](=O)[O-])cc1
2. COc1ccc(/C=N/Nc2nc(-c3cc4oc(=O)n(C)c4cc3Cl)cs2)cc1OC
3. COC(=O)C1CC(C(=O)OC)c2nc3cc([N+](=O)[O-])ccc3nc21 (stereo unspecified)
4. S=C1C(=Nc2ccccc2)N(C2CCCCC2)C(=NC2CCCCC2)N1c1ccccc1
5. O=C(c1ccccc1)c1c(C(F)(F)F)n([O-])c2ccc(F)cc2[n+]1=O
6. C=C1C(=O)OC2C1C(=O)C/C(C)=C/CCC1(C)OC21 (stereo unspecified)
7. COc1cc(/C=C2\CCc3ccccc3C2=O)ccc1O

Resp:
1: > 100 µM; 2: > 100 µM; 3: > 100 µM; 4: > 100 µM; 5: 3.39 µM; 6: > 100 µM; 7: 91.5 µM

Req: Find TGI (SK-OV-3 ovarian) for the entry COc1ccc2c(c1)OCC1Cc3cc4c(cc3OC21)OCO4 (stereo unspecified)
Resp: > 100 µM

----------
So I've got a bunch of molecules here, and I need their TGI values.
test system: CAKI-1 renal; assay: NCI tumour cell line growth inhibition, 48 h
Give bare numbers, in µM.

Known TGI results, listed for orientation:
CCN(Cc1ccccc1F)c1ccc(CO)c(Cl)c1    39.9
CN1CCC(SC2Cc3cc(Cl)ccc3Sc3ccccc32)CC1 (configuration not stated)    23.7
O=C(CNC(=O)c1ccccc1)Oc1c(Cl)c(Cl)c(Cl)c(Cl)c1Cl    54.9
OCc1cn(Cc2ccc(Cl)cc2)c2ccccc12    2.15
Cc1ccc(C2C(C(=O)C(C)(C)C)N2S(=O)(=O)c2ccc(C)cc2)cc1 (configuration not stated)    59.1

Req: Need TGI, item O=C(/C=C/c1ccccc1F)c1ccc([N+](=O)[O-])cc1
Resp: 85.4

----------
system: A549 NSCLC; experiment: NCI tumour cell line growth inhibition, 48 h
So I've got a bunch of compounds here, and I need their TGI values.

Known TGI results, listed for orientation:
Nc1ccn(C2OC(CO)C(O)C2(F)F)c(=O)n1 (stereo not given)    > 100 µM
CCOC(=O)C(Cc1c(C=O)[nH]c2ccccc12)(NC(=O)c1ccccc1)C(=O)OCC    42.2 µM
Cn1c(-c2ccccc2)c2cc3nc4ccccc4nc3cc2c1-c1ccccc1    > 100 µM
COc1ccc(N=NC(=O)NC(CC(C)C)C(=O)NC(Cc2ccccc2)C(=O)O)cc1 (stereo not given)    > 100 µM

# next compound below
Req: Need TGI, item CSc1nc2c(nc(N)n2C2OC(CO)C(O)C(O)C2O)c(=O)n1C (stereo not given)
Resp: > 100 µM

----------
The following molecules have recorded GI50 on LOX IMVI melanoma.

COc1cccc(C(=O)c2sc(Nc3ccc(N4CCN(C(C)C)CC4)cc3)nc2N)c1    1220 nM
CCN(Cc1ccccc1F)c1ccc(CO)c(Cl)c1    20300 nM
CCCCCCCCCCCC[C@@H](O)[C@H]1CC[C@H]([C@H](O)CCCC[C@H](O)CCCCC[C@@H](O)CC2=C[C@H](C)OC2=O)O1    809 nM

Req: Need GI50, item O=C(CI)OCC(COC(=O)CI)OC(=O)CI
Resp: 1030 nM
